# tested-target: rat μ opioid receptors (rMOR) (Rattus norvegicus, UniProt P33535)
# Construct: expressed in transfected cells; host or cells: HN9.10 neuroblastoma cell line, pCDNA3, neomycin-selected clones
# Sequence (P33535 whole entry): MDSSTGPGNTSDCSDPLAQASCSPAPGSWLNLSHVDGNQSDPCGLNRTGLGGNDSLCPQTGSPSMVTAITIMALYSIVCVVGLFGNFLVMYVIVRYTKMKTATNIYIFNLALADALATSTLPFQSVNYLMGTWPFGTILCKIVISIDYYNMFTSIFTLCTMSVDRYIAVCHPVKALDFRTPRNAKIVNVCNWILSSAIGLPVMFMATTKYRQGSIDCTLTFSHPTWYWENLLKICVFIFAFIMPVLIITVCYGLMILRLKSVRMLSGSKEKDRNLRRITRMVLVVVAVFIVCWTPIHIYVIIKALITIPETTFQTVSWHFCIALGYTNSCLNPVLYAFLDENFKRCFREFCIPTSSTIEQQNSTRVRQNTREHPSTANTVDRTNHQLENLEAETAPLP
# procedure-summary: Radioligand competition binding, [3H]DAMGO, rMOR membranes
# conditions-used: read-out: Ki, rMOR, [3H]DAMGO
Peptide text beside a SMILES is read from it.
property-label: Ki (nM)

compound="CC(C)C[C@H](NC(=O)[C@@H]1CCCN1C(=O)[C@H]1CSSC[C@@H](NC(=O)[C@@H](N)Cc2ccc(O)cc2)C(=O)NCC(=O)N[C@@H](Cc2ccccc2)C(=O)N1)C(=O)N[C@@H](Cc1c[nH]c2ccccc12)C(=O)NCc1cc(C(F)(F)F)cc(C(F)(F)F)c1 [TY037, [D-Cys^2, D-Cys^5]TY027]" property_label=Ki recorded_result=52
compound="CC(C)C[C@H](NC(=O)[C@@H]1CCCN1C(=O)CNC(=O)[C@H](Cc1ccccc1)NC(=O)CNC(=O)[C@@H](C)NC(=O)[C@@H](N)Cc1ccc(O)cc1)C(=O)N[C@@H](Cc1c[nH]c2ccccc12)C(=O)OCc1cc(C(F)(F)F)cc(C(F)(F)F)c1 [TY006] (HELM PEPTIDE1{Y.[dA].G.F.G.P.L.W.[FC(F)(F)c1cc(CO[*:1])cc(C(F)(F)F)c1]}$$$$V2.0)" property_label=Ki recorded_result=27

* * *

# tested-target: rat μ opioid receptors (rMOR) (Rattus norvegicus, UniProt P33535)
# Construct: expressed in transfected cells; host or cells: HN9.10 neuroblastoma cell line, pCDNA3, neomycin-selected clones
# procedure-summary: Radioligand competition binding, [3H]DAMGO, rMOR membranes
# conditions-used: read-out: Ki, rMOR, [3H]DAMGO
property-label: Ki (nM)

chemical_smiles=CC(C)C[C@H](NC(=O)[C@@H]1CCCN1C(=O)[C@@H](Cc1ccccc1)NC(=O)[C@H](Cc1ccccc1)NC(=O)CNC(=O)[C@@H](C)NC(=O)[C@@H](N)Cc1ccc(O)cc1)C(=O)N[C@@H](Cc1c[nH]c2ccccc12)C(=O)OCc1cc(C(F)(F)F)cc(C(F)(F)F)c1 recorded_result=381

* * *

# tested-target: rat μ opioid receptors (rMOR) (Rattus norvegicus, UniProt P33535)
# Construct: expressed in transfected cells; host or cells: HN9.10 neuroblastoma cell line, pCDNA3, neomycin-selected clones
# procedure-summary: Radioligand competition binding, [3H]DAMGO, rMOR membranes
# conditions-used: read-out: Ki, rMOR, [3H]DAMGO
Peptide text beside a SMILES is read from it.
property-label: Ki (nM)

compound="CCCC[C@@H]1NC(=O)[C@H](Cc2ccccc2)NC(=O)CNC(=O)[C@H](NC(=O)[C@@H](N)Cc2ccc(O)cc2)CSSC[C@@H](C(=O)N[C@@H](Cc2c[nH]c3ccccc23)C(=O)NCc2cc(C(F)(F)F)cc(C(F)(F)F)c2)NC(=O)[C@@H]2CCCN2C1=O [TY035, [D-Cys^2, Cys^7]TY027] (HELM PEPTIDE1{Y.[dC].G.F.[Nle].P.C.W.[FC(F)(F)c1cc(CN[*:1])cc(C(F)(F)F)c1]}$PEPTIDE1,PEPTIDE1,2:R3-7:R3$$$V2.0; N-terminus assumed)" property_label=Ki recorded_result=79

* * *

# tested-target: rat μ opioid receptors (rMOR) (Rattus norvegicus, UniProt P33535)
# Construct: expressed in transfected cells; host or cells: HN9.10 neuroblastoma cell line, pCDNA3, neomycin-selected clones
# procedure-summary: biochemical
# Format: biochemical
# conditions-used: Table 32; read-out: GTP rMOR EC50
Peptide text beside a SMILES is read from it.
property-label: EC50 (nM)

compound="CC(C)C[C@H](NC(=O)[C@H](Cc1ccccc1)NC(=O)CNC(=O)[C@@H](C)NC(=O)[C@@H](N)Cc1ccc(O)cc1)C(=O)N[C@@H](Cc1c[nH]c2ccccc12)C(=O)OCc1cc(C(F)(F)F)cc(C(F)(F)F)c1 [NP37] (HELM PEPTIDE1{Y.[dA].G.F.L.W.[FC(F)(F)c1cc(CO[*:1])cc(C(F)(F)F)c1]}$$$$V2.0; N-terminus assumed)" recorded_result=14
compound="C[C@H](NC(=O)[C@H](Cc1ccccc1)NC(=O)CNC(=O)[C@@H](C)NC(=O)[C@@H](N)Cc1ccc(O)cc1)C(=O)N[C@@H](Cc1c[nH]c2ccccc12)C(=O)OCc1cc(C(F)(F)F)cc(C(F)(F)F)c1 [NP31] (HELM PEPTIDE1{Y.[dA].G.F.A.W.[FC(F)(F)c1cc(CO[*:1])cc(C(F)(F)F)c1]}$$$$V2.0; N-terminus assumed)" recorded_result=11
compound="CSCC[C@H](NC(=O)[C@H](Cc1ccccc1)NC(=O)CNC(=O)[C@@H](C)NC(=O)[C@@H](N)Cc1ccc(O)cc1)C(=O)N[C@@H](Cc1c[nH]c2ccccc12)C(=O)OCc1cc(C(F)(F)F)cc(C(F)(F)F)c1 [NP38] (HELM PEPTIDE1{Y.[dA].G.F.M.W.[FC(F)(F)c1cc(CO[*:1])cc(C(F)(F)F)c1]}$$$$V2.0; N-terminus assumed)" recorded_result=0.8

* * *

# tested-target: human NK1 receptor (hNK1) (Homo sapiens, UniProt P25103)
# Construct: expressed in transfected cells
# Sequence (P25103 whole entry): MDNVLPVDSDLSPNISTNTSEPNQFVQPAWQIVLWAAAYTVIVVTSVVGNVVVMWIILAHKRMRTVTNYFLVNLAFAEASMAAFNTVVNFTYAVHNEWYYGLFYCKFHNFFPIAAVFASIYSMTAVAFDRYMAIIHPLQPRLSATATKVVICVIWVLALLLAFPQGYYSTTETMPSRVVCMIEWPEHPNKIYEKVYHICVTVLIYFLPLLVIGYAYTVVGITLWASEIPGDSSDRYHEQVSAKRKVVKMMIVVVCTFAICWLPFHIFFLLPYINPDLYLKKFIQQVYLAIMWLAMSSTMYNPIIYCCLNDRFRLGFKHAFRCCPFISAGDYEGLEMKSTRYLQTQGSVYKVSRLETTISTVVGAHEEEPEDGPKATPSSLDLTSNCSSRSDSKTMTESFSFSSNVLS
# procedure-summary: Radioligand competition binding, [3H]-Substance P, hNK1
pKi: −log10 of the molar value.
property-label: pKi

compound="CSCC[C@H](NC(=O)[C@H](Cc1ccccc1)NC(=O)CNC(=O)[C@@H](C)NC(=O)[C@@H](N)Cc1ccc(O)cc1)C(=O)N1CCC[C@H]1C(=O)N[C@@H](CC(C)C)C(=O)N[C@@H](Cc1c[nH]c2ccccc12)C(=O)N(C)Cc1ccccc1 [TY026]" tested_target="human NK1 receptor (hNK1) (Homo sapiens, UniProt P25103)" property_label=pKi recorded_result=12.00
compound="CC(C)C[C@H](NC(=O)[C@@H]1CCCN1C(=O)[C@H](Cc1ccccc1)NC(=O)CNC(=O)[C@@H](C)NC(=O)[C@@H](N)Cc1ccc(O)cc1)C(=O)N[C@@H](Cc1c[nH]c2ccccc12)C(=O)OCc1cc(C(F)(F)F)cc(C(F)(F)F)c1 [TY001]" tested_target="human NK1 receptor (hNK1) (Homo sapiens, UniProt P25103)" property_label=pKi recorded_result=11.64

* * *

# tested-target: human δ opioid receptors (hDOR) (Homo sapiens, UniProt P41143)
# Construct: expressed in transfected cells; host or cells: HN9.10 neuroblastoma cell line, pCDNA3, neomycin-selected clones
# Sequence (P41143 whole entry): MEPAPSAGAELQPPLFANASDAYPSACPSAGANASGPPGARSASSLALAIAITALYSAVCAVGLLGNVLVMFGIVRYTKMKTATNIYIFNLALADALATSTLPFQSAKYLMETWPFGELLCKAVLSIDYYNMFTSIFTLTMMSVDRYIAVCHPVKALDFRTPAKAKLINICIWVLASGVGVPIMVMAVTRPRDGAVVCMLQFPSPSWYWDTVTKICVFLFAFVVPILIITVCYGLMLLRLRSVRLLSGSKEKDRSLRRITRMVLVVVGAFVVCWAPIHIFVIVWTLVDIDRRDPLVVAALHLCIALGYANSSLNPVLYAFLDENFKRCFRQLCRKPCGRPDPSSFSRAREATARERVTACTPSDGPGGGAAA
# procedure-summary: [35S]GTP-γ-S binding assay, hDOR
# Format: biochemical
# conditions-used: Table 39; read-out: GTP binding hDOR EC50
Peptide text beside a SMILES is read from it.
property-label: EC50 (nM)

compound=CC(C)C[C@H](NC(=O)[C@@H]1CCCN1C(=O)[C@@H]1CSSC[C@@H](NC(=O)[C@@H](N)Cc2ccc(O)cc2)C(=O)NCC(=O)N[C@@H](Cc2ccccc2)C(=O)N1)C(=O)N[C@@H](Cc1c[nH]c2ccccc12)C(=O)NCc1cc(C(F)(F)F)cc(C(F)(F)F)c1 recorded_result=50.9
compound="CC(C)C[C@H](NC(=O)[C@@H]1CCCN1C(=O)[C@H](CC[S+](C)[O-])NC(=O)[C@H](Cc1ccccc1)NC(=O)CNC(=O)[C@@H](C)NC(=O)[C@@H](N)Cc1ccc(O)cc1)C(=O)N[C@@H](Cc1c[nH]c2ccccc12)C(=O)OCc1cc(C(F)(F)F)cc(C(F)(F)F)c1 (stereo partly shown)" recorded_result=1.8
compound="CC(C)C[C@H](NC(=O)[C@@H]1CCCN1C(=O)[C@H]1CSSC[C@@H](NC(=O)[C@@H](N)Cc2ccc(O)cc2)C(=O)NCC(=O)N[C@@H](Cc2ccccc2)C(=O)N1)C(=O)N[C@@H](Cc1c[nH]c2ccccc12)C(=O)NCc1cc(C(F)(F)F)cc(C(F)(F)F)c1 [TY037, [D-Cys^2, D-Cys^5]TY027]" recorded_result=98.2
compound="CC(C)C[C@H](NC(=O)[C@@H]1CCCN1C(=O)CNC(=O)[C@H](Cc1ccccc1)NC(=O)CNC(=O)[C@@H](C)NC(=O)[C@@H](N)Cc1ccc(O)cc1)C(=O)N[C@@H](Cc1c[nH]c2ccccc12)C(=O)OCc1cc(C(F)(F)F)cc(C(F)(F)F)c1 [TY006] (HELM PEPTIDE1{Y.[dA].G.F.G.P.L.W.[FC(F)(F)c1cc(CO[*:1])cc(C(F)(F)F)c1]}$$$$V2.0)" recorded_result=50.2

* * *

# tested-target: human δ opioid receptors (hDOR) (Homo sapiens, UniProt P41143)
# Construct: expressed in transfected cells; host or cells: HN9.10 neuroblastoma cell line, pCDNA3, neomycin-selected clones
# procedure-summary: Radioligand competition binding, [3H]DPDPE, hDOR membranes
# conditions-used: Table 39; read-out: Affinity hDOR (Ki; nM)
Peptide text beside a SMILES is read from it.
property-label: Ki (nM)

compound="CC(C)C[C@H](NC(=O)[C@@H]1CCCN1C(=O)CNC(=O)[C@H](Cc1ccccc1)NC(=O)CNC(=O)[C@@H](C)NC(=O)[C@@H](N)Cc1ccc(O)cc1)C(=O)N[C@@H](Cc1c[nH]c2ccccc12)C(=O)OCc1cc(C(F)(F)F)cc(C(F)(F)F)c1 [TY006] (HELM PEPTIDE1{Y.[dA].G.F.G.P.L.W.[FC(F)(F)c1cc(CO[*:1])cc(C(F)(F)F)c1]}$$$$V2.0)" recorded_result=36.1
compound="CCCC[C@H](NC(=O)[C@H](Cc1ccccc1)NC(=O)CNC(=O)[C@@H](C)NC(=O)[C@@H](N)Cc1c(C)cc(O)cc1C)C(=O)N1CCC[C@H]1C(=O)N[C@@H](CC(C)C)C(=O)N[C@@H](Cc1c[nH]c2ccccc12)C(=O)N(C)Cc1cc(C(F)(F)F)cc(C(F)(F)F)c1 [TY052]" recorded_result=0.46
compound="CC(C)C[C@H](NC(=O)[C@@H]1CCCN1C(=O)[C@H]1CSSC[C@@H](NC(=O)[C@@H](N)Cc2ccc(O)cc2)C(=O)NCC(=O)N[C@@H](Cc2ccccc2)C(=O)N1)C(=O)N[C@@H](Cc1c[nH]c2ccccc12)C(=O)NCc1cc(C(F)(F)F)cc(C(F)(F)F)c1 [TY037, [D-Cys^2, D-Cys^5]TY027]" recorded_result=7.8
compound="CC(C)C[C@H](NC(=O)[C@@H]1CCCN1C(=O)[C@H](CC(C)C)NC(=O)[C@H](Cc1ccccc1)NC(=O)CNC(=O)[C@@H](C)NC(=O)[C@@H](N)Cc1ccc(O)cc1)C(=O)N[C@@H](Cc1c[nH]c2ccccc12)C(=O)OCc1cc(C(F)(F)F)cc(C(F)(F)F)c1 [TY004]" recorded_result=5
